Organism: Rattus norvegicus
ASSAY: Open TG-GATES - Regimen: Single
Type: toxicity, organism-based, Sprague-Dawley
Design: regimen Single, gender Male, age 6 weeks
STATED_CONDITIONS: in vivo, po, 100 mg/kg, 9 h, tissue Plasma, route gavage, dose level Low

| STRUCTURE_AS_SMILES | UNITS | TC |
| --- | --- | --- |
| COC(=O)C1=C(C)NC(C)=C(C(=O)OC)C1c1ccccc1[N+](=O)[O-] | mg/dL | 90.6 |
| O=C(OC[C@H]1O[C@@H](OC(=O)c2cc(O)c(O)c(OC(=O)c3cc(O)c(O)c(O)c3)c2)[C@H](OC(=O)c2cc(O)c(O)c(OC(=O)c3cc(O)c(O)c(O)c3)c2)[C@@H](OC(=O)c2cc(O)c(O)c(OC(=O)c3cc(O)c(O)c(O)c3)c2)[C@@H]1OC(=O)c1cc(O)c(O)c(OC(=O)c2cc(O)c(O)c(O)c2)c1)c1cc(O)c(O)c(OC(=O)c2cc(O)c(O)c(O)c2)c1 | mg/dL | 78.8 |

---

Organism: Rattus norvegicus
ASSAY: Open TG-GATES - Regimen: Daily Repeat
Type: toxicity, organism-based, Sprague-Dawley
Design: regimen Daily Repeat, gender Male, age 6 weeks
STATED_CONDITIONS: in vivo, po, 0 mg/kg, […], tissue Plasma, route gavage, dose level Control, time 7 day

| MOLECULE | LDH |
| --- | --- |
| NC1=NC(=O)C(c2ccccc2)O1 (stereo unspecified) [PEMOLINE] | 80.2 IU/L |
| Nc1c2c(nc3ccccc13)CCCC2 [TACRINE] | 172.8 IU/L |
| CNC(=C[N+](=O)[O-])NCCSCc1ccc(CN(C)C)o1 [RANITIDINE] | 164.8 IU/L |
| CCCc1cc(=O)[nH]c(=S)[nH]1 [PROPYLTHIOURACIL] | 95.6 IU/L |
| CCOc1ccc(NC(C)=O)cc1 [PHENACETIN] | 95.8 IU/L |
| Brc1ccccc1 [BROMOBENZENE] | 97 IU/L |

---

Species: Rattus norvegicus
ASSAY: Open TG-GATES - Regimen: Single
Assay type: toxicity, organism-based, Sprague-Dawley
Parameters: regimen Single, gender Male, age 6 weeks
STATED_CONDITIONS: in vivo, po, 300 mg/kg, 6 h, tissue Plasma, route gavage, dose level Middle
# Lookup of reported TP keyed by entry

| COMPOUND | UNITS | TP |
| --- | --- | --- |
| CN/C(=N/CCSCc1nc[nH]c1C)NC#N [CIMETIDINE] | g/dL | 5.5 |
| Cc1nnc2n1-c1ccc(Cl)cc1C(c1ccccc1Cl)=NC2 [TRIAZOLAM] | g/dL | 5.3 |
| CNC(=C[N+](=O)[O-])NCCSCc1ccc(CN(C)C)o1 [RANITIDINE] | g/dL | 5.4 |
| O=C(OC[C@H]1O[C@@H](OC(=O)c2cc(O)c(O)c(OC(=O)c3cc(O)c(O)c(O)c3)c2)[C@H](OC(=O)c2cc(O)c(O)c(OC(=O)c3cc(O)c(O)c(O)c3)c2)[C@@H](OC(=O)c2cc(O)c(O)c(OC(=O)c3cc(O)c(O)c(O)c3)c2)[C@@H]1OC(=O)c1cc(O)c(O)c(OC(=O)c2cc(O)c(O)c(O)c2)c1)c1cc(O)c(O)c(OC(=O)c2cc(O)c(O)c(O)c2)c1 [TANNIC ACID] | g/dL | 5.2 |
| COC(=O)C1=C(C)NC(C)=C(C(=O)OC)C1c1ccccc1[N+](=O)[O-] [NIFEDIPINE] | g/dL | 5.5 |

---

# Lookup of reported MCV keyed by entry
Species: Rattus norvegicus
ASSAY: Open TG-GATES - Regimen: Single
Type: toxicity, organism-based, Sprague-Dawley
Parameters: regimen Single, gender Male, age 6 weeks
STATED_CONDITIONS: in vivo, po, 0 mg/kg, 6 h, tissue Blood, route gavage, dose level Control
ASSAY_METRIC: MCV (fL)

| MOLECULE | UNITS | ENDPOINT_RESULT |
| --- | --- | --- |
| CCOc1ccc(NC(C)=O)cc1 | fL | 62.2 |
| CN1C(=O)CCS(=O)(=O)C1c1ccc(Cl)cc1 (centres undefined) | fL | 65 |
| CN(C)CCC(c1ccc(Cl)cc1)c1ccccn1 (centres undefined) | fL | 65.1 |
| Cc1nnc2n1-c1ccc(Cl)cc1C(c1ccccc1Cl)=NC2 | fL | 64.7 |
| NC1=NC(=O)C(c2ccccc2)O1 (centres undefined) | fL | 65.9 |
| O=C(OC[C@H]1O[C@@H](OC(=O)c2cc(O)c(O)c(OC(=O)c3cc(O)c(O)c(O)c3)c2)[C@H](OC(=O)c2cc(O)c(O)c(OC(=O)c3cc(O)c(O)c(O)c3)c2)[C@@H](OC(=O)c2cc(O)c(O)c(OC(=O)c3cc(O)c(O)c(O)c3)c2)[C@@H]1OC(=O)c1cc(O)c(O)c(OC(=O)c2cc(O)c(O)c(O)c2)c1)c1cc(O)c(O)c(OC(=O)c2cc(O)c(O)c(O)c2)c1 | fL | 65.6 |
| Brc1ccccc1 | fL | 64.3 |
| Nc1c2c(nc3ccccc13)CCCC2 | fL | 61.1 |
| CNC(=C[N+](=O)[O-])NCCSCc1ccc(CN(C)C)o1 | fL | 63.7 |

---

Organism: Rattus norvegicus
ASSAY: Open TG-GATES - Regimen: Daily Repeat
Assay type: toxicity, organism-based, Sprague-Dawley
Set-up: regimen Daily Repeat, gender Male, age 6 weeks
STATED_CONDITIONS: in vivo, po, 100 mg/kg, […], tissue Blood, route gavage, dose level Low, time 14 day

| STRUCTURE_AS_SMILES | Neu [%] |
| --- | --- |
| Cc1nnc2n1-c1ccc(Cl)cc1C(c1ccccc1Cl)=NC2 | 18.4 |
| O=C(OC[C@H]1O[C@@H](OC(=O)c2cc(O)c(O)c(OC(=O)c3cc(O)c(O)c(O)c3)c2)[C@H](OC(=O)c2cc(O)c(O)c(OC(=O)c3cc(O)c(O)c(O)c3)c2)[C@@H](OC(=O)c2cc(O)c(O)c(OC(=O)c3cc(O)c(O)c(O)c3)c2)[C@@H]1OC(=O)c1cc(O)c(O)c(OC(=O)c2cc(O)c(O)c(O)c2)c1)c1cc(O)c(O)c(OC(=O)c2cc(O)c(O)c(O)c2)c1 | 18 |
| CCOc1ccc(NC(C)=O)cc1 | 16.6 |
| CNC(=C[N+](=O)[O-])NCCSCc1ccc(CN(C)C)o1 | 16.4 |
| CN/C(=N/CCSCc1nc[nH]c1C)NC#N | 13 |

---

# Lookup of reported Ht keyed by entry
Species on record: Rattus norvegicus
ASSAY: Open TG-GATES - Regimen: Single
Assay type: toxicity, organism-based, Sprague-Dawley
Design: regimen Single, gender Male, age 6 weeks
STATED_CONDITIONS: in vivo, po, 1000 mg/kg, 6 h, tissue Blood, route gavage, dose level High
ASSAY_METRIC: Ht (%)

| STRUCTURE_AS_SMILES | ASSAY_METRIC | UNITS | ENDPOINT_RESULT |
| --- | --- | --- | --- |
| Cc1nnc2n1-c1ccc(Cl)cc1C(c1ccccc1Cl)=NC2 | Ht | % | 42.3 |
| CNC(=C[N+](=O)[O-])NCCSCc1ccc(CN(C)C)o1 | Ht | % | 38 |
| CN/C(=N/CCSCc1nc[nH]c1C)NC#N | Ht | % | 38.2 |
| O=C(OC[C@H]1O[C@@H](OC(=O)c2cc(O)c(O)c(OC(=O)c3cc(O)c(O)c(O)c3)c2)[C@H](OC(=O)c2cc(O)c(O)c(OC(=O)c3cc(O)c(O)c(O)c3)c2)[C@@H](OC(=O)c2cc(O)c(O)c(OC(=O)c3cc(O)c(O)c(O)c3)c2)[C@@H]1OC(=O)c1cc(O)c(O)c(OC(=O)c2cc(O)c(O)c(O)c2)c1)c1cc(O)c(O)c(OC(=O)c2cc(O)c(O)c(O)c2)c1 | Ht | % | 40.6 |
| COC(=O)C1=C(C)NC(C)=C(C(=O)OC)C1c1ccccc1[N+](=O)[O-] | Ht | % | 39.6 |

---

Species on record: Rattus norvegicus
ASSAY: Open TG-GATES - Regimen: Daily Repeat
Format: toxicity, organism-based, Sprague-Dawley
Set-up: regimen Daily Repeat, gender Male, age 6 weeks
STATED_CONDITIONS: in vivo, po, 100 mg/kg, 72 h, tissue Kidney, route gavage, dose level Low, time 3 day
# Lookup of reported KIDNEY_TOTAL keyed by entry
ASSAY_METRIC: KIDNEY_TOTAL (g)

| STRUCTURE_AS_SMILES | ENDPOINT_RESULT |
| --- | --- |
| CCOc1ccc(NC(C)=O)cc1 | 2.1 |
| COC(=O)C1=C(C)NC(C)=C(C(=O)OC)C1c1ccccc1[N+](=O)[O-] | 1.9 |
| CNC(=C[N+](=O)[O-])NCCSCc1ccc(CN(C)C)o1 | 2 |
| Cc1nnc2n1-c1ccc(Cl)cc1C(c1ccccc1Cl)=NC2 | 1.9 |
| CN/C(=N/CCSCc1nc[nH]c1C)NC#N | 2 |
| O=C(OC[C@H]1O[C@@H](OC(=O)c2cc(O)c(O)c(OC(=O)c3cc(O)c(O)c(O)c3)c2)[C@H](OC(=O)c2cc(O)c(O)c(OC(=O)c3cc(O)c(O)c(O)c3)c2)[C@@H](OC(=O)c2cc(O)c(O)c(OC(=O)c3cc(O)c(O)c(O)c3)c2)[C@@H]1OC(=O)c1cc(O)c(O)c(OC(=O)c2cc(O)c(O)c(O)c2)c1)c1cc(O)c(O)c(OC(=O)c2cc(O)c(O)c(O)c2)c1 | 2 |
